Data provenance is ChEMBL document CHEMBL6071149.

This listing pairs compounds with measured EC50.
Tested on: G-361
Assay: Cytotoxicity against human G361 cells pretreated for 4 hrs followed by light irradiation of 10 J/cm2 at 414 nm measured after 68 hrs by MTT assay
Type: functional, cell-based
Conditions: G-361, light or radiation study
REPORTED PROPERTY: EC50 (nM)

> print(dat)
                                 smiles.text  target.of.assay  qualifier.operator  recorded.value
 1  CC1(C)C(/C=C/c2ccccc2[N+](=O)[O-])=Nc2ccc3ccccc3c21            G-361                   =            1100
 2  CC1(C)C(/C=C/c2ccc(F)c(C#N)c2)=Nc2ccc3ccccc3c21            G-361                   =            1400
 3  CC1(C)C(/C=C/c2ccc(F)c([N+](=O)[O-])c2)=Nc2ccc3ccccc3c21            G-361                   =            1800
 4  CN(C)c1ccc(/C=C/C2=Nc3ccc4ccccc4c3C2(C)C)cc1            G-361                   >           10000
 5  COc1ccc(/C=C/C2=Nc3ccc4ccccc4c3C2(C)C)cc1[N+](=O)[O-]            G-361                   =             200
 6  CCN(CC)c1ccc(/C=C/C2=Nc3ccc4ccccc4c3C2(C)C)cc1            G-361                   >           10000
 7  CC1(C)C(/C=C/c2cccc(C(F)(F)F)c2)=Nc2ccc3ccccc3c21            G-361                   =            1300
 8   CC1(C)C(/C=C/c2ccccc2)=Nc2ccc3ccccc3c21            G-361                   =            2800
 9  CC1(C)C(/C=C/c2ccc(C(F)(F)F)cc2)=Nc2ccc3ccccc3c21            G-361                   =             900
10  Cc1ccc(/C=C/C2=Nc3ccc4ccccc4c3C2(C)C)cc1[N+](=O)[O-]            G-361                   =             900

----------
This listing pairs molecules with measured EC50 at 72 h.
Assay: Cytotoxicity against human BJ cells under dark condition measured after 72 hrs by MTT assay
Type: toxicity, cell-based
REPORTED PROPERTY: EC50 at 72 h (µM)

> print(dat)
                                 smiles.text  quantity.unit  qualifier.operator  recorded.value
 1  COc1ccc(/C=C/C2=Nc3ccc4ccccc4c3C2(C)C)cc1[N+](=O)[O-]             µM                   =             8.3
 2  CC1(C)C(/C=C/c2cccc(C(F)(F)F)c2)=Nc2ccc3ccccc3c21             µM                   >              10
 3  CC1(C)C(/C=C/c2cccc([N+](=O)[O-])c2)=Nc2ccc3ccccc3c21             µM                   =               5
 4  CC1(C)C(/C=C/c2ccc(C#N)cc2)=Nc2ccc3ccccc3c21             µM                   =             6.7
 5  Cc1ccc(/C=C/C2=Nc3ccc4ccccc4c3C2(C)C)cc1[N+](=O)[O-]             µM                   =               8
 6  CC1(C)C(/C=C/c2ccc(Br)cc2)=Nc2ccc3ccccc3c21             µM                   >              10
 7  CC1(C)C(/C=C/c2ccc([N+](=O)[O-])cc2)=Nc2ccc3ccccc3c21             µM                   =               6
 8  CC1(C)C(/C=C/c2ccc(C#N)c(F)c2)=Nc2ccc3ccccc3c21             µM                   =             7.2
 9  CC1(C)C(/C=C/c2ccc(Cl)c([N+](=O)[O-])c2)=Nc2ccc3ccccc3c21             µM                   >              10
10  CC1(C)C(/C=C/c2cc(C(F)(F)F)cc(C(F)(F)F)c2)=Nc2ccc3ccccc3c21             µM                   >              10
11  CC1(C)C(/C=C/c2ccccc2[N+](=O)[O-])=Nc2ccc3ccccc3c21             µM                   >              10

----------
Test system: G-361
Assay: Cytotoxicity against human G361 cells pretreated for 4 hrs followed by light irradiation of 10 J/cm2 at 414 nm measured after 68 hrs by MTT assay
Type: functional, cell-based
Details: G-361, light or radiation study
Note to self: use Criterion met only for EC50 readings below 800 nM; a reading exactly at 800 nM still gets Criterion not met.

> print(dat)
                                 smiles.text        class.label
 1  CC1(C)C(/C=C/c2ccc(C#N)c(F)c2)=Nc2ccc3ccccc3c21      Criterion met
 2  CC1(C)C(/C=C/c2cccc([N+](=O)[O-])c2)=Nc2ccc3ccccc3c21      Criterion met
 3  CC1(C)C(/C=C/c2cc([N+](=O)[O-])ccc2Cl)=Nc2ccc3ccccc3c21  Criterion not met
 4  CC1(C)C(/C=C/c2ccc(F)cc2)=Nc2ccc3ccccc3c21  Criterion not met
 5  CC1(C)C(/C=C/c2cc(C(F)(F)F)cc(C(F)(F)F)c2)=Nc2ccc3ccccc3c21  Criterion not met
 6  CC1(C)C(/C=C/c2ccc(C#N)cc2)=Nc2ccc3ccccc3c21      Criterion met
 7  CC1(C)C(/C=C/c2ccc(Cl)c([N+](=O)[O-])c2)=Nc2ccc3ccccc3c21      Criterion met
 8  CC1(C)C(/C=C/c2ccc(Br)cc2)=Nc2ccc3ccccc3c21  Criterion not met
 9  COc1ccc(/C=C/C2=Nc3ccc4ccccc4c3C2(C)C)cc1  Criterion not met
10  CC1(C)C(/C=C/c2cccc(C#N)c2)=Nc2ccc3ccccc3c21  Criterion not met

----------
Experiment: Cytotoxicity against human ARN-8 cells-derived from human A375 cells under dark condition measured after 72 hrs by MTT assay
Type: functional, cell-based
Conditions: ARN-8 cell
REPORTED PROPERTY: EC50 (µM)

> print(dat)
                                smiles.text  recorded.value
1  COc1ccc(/C=C/C2=Nc3ccc4ccccc4c3C2(C)C)cc1[N+](=O)[O-]             7.3

----------
Test system: G-361
Experiment: Cytotoxicity against human G361 cells pretreated for 4 hrs followed by light irradiation of 10 J/cm2 at 414 nm measured after 20 hrs by MTT assay
Type: functional, cell-based
Details: G-361, light or radiation study
REPORTED PROPERTY: EC50

> print(dat)
                                smiles.text  reported.property  recorded.value
1  COc1ccc(/C=C/C2=Nc3ccc4ccccc4c3C2(C)C)cc1[N+](=O)[O-]               EC50          600 nM
